test: Safety assay: cytotoxicity against Vero non-cancer cell line; type: cell-based; details: African green monkey, Vero cells (non-cancer cell line); Vero normal cell line
I'd appreciate it if you could supply IC50 at 24 h values for the items below.
Please respond with the number in µM and leave the unit unwritten.

Query: Respond only with IC50 at 24 h recorded for COc1ccc2[nH]c(=O)c(/C=C3\SC(=O)N(CC(=O)Nc4ccc(Cl)cc4)C3=O)cc2c1 [Compound 10a]
Result: 194

Query: Respond only with IC50 at 24 h recorded for O=C(CN1C(=O)SC(=C2C(=O)Nc3ccccc32)C1=O)Nc1cc(Cl)ccc1Cl [Compound 14b]
Result: 1270

Query: Respond only with IC50 at 24 h recorded for O=C(CN1C(=O)SC(=C2C(=O)Nc3ccccc32)C1=O)Nc1ccc(Cl)cc1 [Compound 14a]
Result: 290

Query: Respond only with IC50 at 24 h recorded for COc1ccc2[nH]c(=O)c(/C=C3\SC(=O)N(CC(=O)Nc4cc(Cl)ccc4Cl)C3=O)cc2c1 [Compound 10b]
Result: 1580
